Test system: MCF-7 cells
Assay: WST-1 cytotoxicity assay, MCF-7 cells
Format: cell-based, human
Conditions: Selectivity Index = IC50(KMST-6)/IC50(MCF-7)
Reported Endpoint: SI MCF-7

CC1(C)CC[C@]2(C)CC=C3[C@]4(C)CCC(C(C)(C)CO)[C@](C)(CC(=O)O)C4CC[C@@]3(C)C2C1 (some centres unmarked) [Compound 5] :: 1
CC1CCC2(C(=O)O)CCC3(COC(=O)C=Cc4ccc(O)cc4)C(=CCC4C5(C)CCC(O)C(C)(C)C5CCC43C)C2C1C (centres unmarked) [Compound 3, 27-p-Z-coumaroyloxyursolic acid] :: 1.7
C[C@H]1[C@H](C)CC[C@]2(C(=O)O)CC[C@]3(C)C(=CC[C@@H]4[C@@]5(C)CC[C@H](O)C(C)(C)[C@@H]5CC[C@]43C)[C@H]12 [Compound 1, ursolic acid] :: 5.0
CC1CCC2(C(=O)O)CCC3(COC(=O)C=Cc4ccc(O)cc4)C(=CCC4C5(C)CCC(O)C(C)(C)C5CCC43C)C2C1C (centres unmarked) [Compound 2, 27-p-E-coumaroloxyursolic acid] :: 1.7

----------
System: HeLa cells
Experiment: WST-1 cytotoxicity assay, HeLa cells
Format: cell-based, human
Conditions: Selectivity Index = IC50(KMST-6)/IC50(HeLa)
Method: HeLa, HT-29, MCF-7 and KMST-6 cells were prepared from our laboratory stocks. […] The cells were harvested using trypsin (Lonza Group Ltd.), and viable cell concentrations were determined using the Countess® Automated Cell Counter (Invitrogen, CA, USA). […] Cell viability was measured using the WST-1 assay (Roche Diagnostics GmbH, Mannheim, Germany) as previously described by Ngamwongsatit et al., 2008. […] Triplicate experiments were conducted and the results expressed as mean ± SEM.
Reported Endpoint: SI HeLa

CC1CCC2(C(=O)O)CCC3(COC(=O)C=Cc4ccc(O)cc4)C(=CCC4C5(C)CCC(O)C(C)(C)C5CCC43C)C2C1C (stereo not shown) [Compound 2, 27-p-E-coumaroloxyursolic acid] :: 2
CC1(C)CC[C@]2(C)CC=C3[C@]4(C)CCC(C(C)(C)CO)[C@](C)(CC(=O)O)C4CC[C@@]3(C)C2C1 (stereo partly shown) [Compound 5] :: 0.06
C[C@H]1[C@H](C)CC[C@]2(C(=O)O)CC[C@]3(C)C(=CC[C@@H]4[C@@]5(C)CC[C@H](O)C(C)(C)[C@@H]5CC[C@]43C)[C@H]12 [Compound 1, ursolic acid] :: 10.0
CC1CCC2(C(=O)O)CCC3(COC(=O)C=Cc4ccc(O)cc4)C(=CCC4C5(C)CCC(O)C(C)(C)C5CCC43C)C2C1C (stereo not shown) [Compound 3, 27-p-Z-coumaroyloxyursolic acid] :: 1.5

----------
This section presents compounds with their documented SI HT-29 values.
Tested on: HT-29 cells
Assay: WST-1 cytotoxicity assay, HT-29 cells
Format: cell-based, human
Details: Selectivity Index = IC50(KMST-6)/IC50(HT-29)
Reported Endpoint: SI HT-29

CC1CCC2(C(=O)O)CCC3(COC(=O)C=Cc4ccc(O)cc4)C(=CCC4C5(C)CCC(O)C(C)(C)C5CCC43C)C2C1C (stereo not shown) [Compound 2, 27-p-E-coumaroloxyursolic acid] :: 1
CC1CCC2(C(=O)O)CCC3(COC(=O)C=Cc4ccc(O)cc4)C(=CCC4C5(C)CCC(O)C(C)(C)C5CCC43C)C2C1C (stereo not shown) [Compound 3, 27-p-Z-coumaroyloxyursolic acid] :: 1.3
C[C@H]1[C@H](C)CC[C@]2(C(=O)O)CC[C@]3(C)C(=CC[C@@H]4[C@@]5(C)CC[C@H](O)C(C)(C)[C@@H]5CC[C@]43C)[C@H]12 :: 10.0
CC1(C)CC[C@]2(C)CC=C3[C@]4(C)CCC(C(C)(C)CO)[C@](C)(CC(=O)O)C4CC[C@@]3(C)C2C1 (stereo partly shown) :: 0.06
